Entries annotated with measured %Inh
Tested on: BIKE;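 also: KINOMEscan kinase panel screen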
Construct: gene BMP2K
Details: concentration: 1 μM, replicates: in singlicate; n = 1
Respond numerically; units are % and should not be typed.

Here's what some known entries look like.
> print(dat)
                                   compound  observed.property  value.unit  value.measured
1  COc1ccc(C)c(Nc2ccnc(Nc3ccc(-c4cnc[nH]4)cc3)n2)c1.Cl [GW784041]               %Inh           %              37
2  O=C(O)C(F)(F)F.O=c1[nH]ccc2nc(N[C@@H]3CCNC3)nc(Nc3ccc4c(c3)S(=O)(=O)CC4)c12 [GSK2181306]               %Inh           %            98.8
3   CCn1cnc2c(NCc3ccccc3)ncnc21 [SKF-96418]               %Inh           %               0

For the next question, use this compound.
Exercise: Request the reported %Inh associated with c1ccc(Oc2ccc(Nc3ccnc4cc(-c5ccc(CN6CCCCC6)o5)ccc34)cc2)nc1 [GW567143]
Key: 8

This collection of values is drawn from paper PMC5540273.
